Please go through the items and note down their Efficacy (% P1075).
System: tissue strips obtained from Landrace pig bladders
Procedure summary: Functional potassium channel opening activity in isolated bladder strips (field-stimulated twitch)
Study conditions: maximal efficacy relative to P1075; field stimulation 0.05 Hz, 0.5 ms, 20 volts
Express the result in % P1075 but write the number alone.

*Q* Form field: reported Efficacy (% P1075) of CC(Cl)(Cl)C(NC(=O)c1ccc(Cl)cc1)NC(=NC#N)Nc1cccnc1 (stereo not shown) [Example 116]
*A* 94

*Q* Form field: reported Efficacy (% P1075) of CCC(CC)(CCC#N)C(NC(=O)c1ccc(Cl)cc1)NC(=NC#N)Nc1cccnc1 (single isomer, unassigned; (+)) [Example 87]
*A* 67

*Q* Form field: reported Efficacy (% P1075) of CC(C)(C)CC(NC(=O)c1ccc(Cl)cc1)NC(=NS(=O)(=O)C(F)(F)F)Nc1cccnc1 (single isomer, unassigned; (-)) [Example 187]
*A* 52

*Q* Form field: reported Efficacy (% P1075) of CC(C)(C)CC(NC(=O)c1ccc(Cl)cc1)NC(=NS(=O)(=O)C(F)(F)F)Nc1cccnc1 (stereo not shown) [Example 142]
*A* 44

*Q* Form field: reported Efficacy (% P1075) of CC(C)(C)CC(NC(=O)c1ccc(Cl)cc1)NC(=NS(=O)(=O)C(F)(F)F)Nc1cccnc1 (single isomer, unassigned; (+)) [Example 186]
*A* 66

*Q* Form field: reported Efficacy (% P1075) of C=CCC(C)(C)C(NC(=O)c1ccc(Cl)cc1)NC(=NC#N)Nc1cccnc1 (single isomer, unassigned; (+)) [Example 91]
*A* 46

*Q* Form field: reported Efficacy (% P1075) of CC(Cl)(Cl)C(NC(=O)c1ccc(Cl)cc1)NC(=NC#N)Nc1cccnc1 (single isomer, unassigned; (+)) [Example 118]
*A* 69

---

Observable: melting point

*Q* Form field: reported melting point of N#CN=C(Nc1cccnc1)NC(NC(=O)c1ccc(Cl)cc1)C(F)(F)F (centres unmarked) [Example 64]
*A* 136 to 138 °C

*Q* Form field: reported melting point of Cc1ccc(NC(=S)NC(NC(=O)c2ccc(C)cc2)C(F)(F)F)cc1 (centres unmarked) [Example 10]
*A* 192 to 193 °C

*Q* Form field: reported melting point of CC(C)(C)C(NC(=O)c1ccc(Cl)cc1)NC(=NC#N)Nc1cccc(Cl)c1 (centres unmarked) [Example 75]
*A* 158 to 160 °C

*Q* Form field: reported melting point of CC(C)(C)C(NC(=O)c1ccc(Cl)cc1)NC(=NC#N)NCc1ccccn1 (centres unmarked) [Example 82]
*A* 184 to 185 °C

*Q* Form field: reported melting point of N#CN=C(Nc1cccnc1)NC(NC(=O)c1ccc(Cl)cc1)C1CC1 (centres unmarked) [Example 54]
*A* 137 to 139 °C

*Q* Form field: reported melting point of Cc1ccc(C(=O)N[C@@H](COC(C)(C)C)NC(=S)Nc2cccc([N+](=O)[O-])c2)cc1 [Example 31]
*A* 169 to 171 °C

*Q* Form field: reported melting point of Cc1ccc(C(=O)NC(NC(=O)Nc2ccccc2)C(Cl)(Cl)Cl)cc1 (centres unmarked) [Example 42]
*A* 230 to 233 °C

*Q* Form field: reported melting point of CC(Cl)(Cl)C(NC(=O)c1ccc(C(F)(F)F)cc1)NC(=NS(=O)(=O)C(F)(F)F)Nc1cccnc1 (centres unmarked) [Example 191]
*A* 214 to 215 °C

---

Please go through the items and note down their Emax.
Test system: primary cultured guinea-pig urinary bladder (GPB) cells
Procedure summary: Membrane hyperpolarization (MHP) assay, DiBAC(4)3 / FLIPR
Assay type: cell-based
Study conditions: Cavia porcellus, maximal steady-state hyperpolarization, normalized to response with 10 μM P1075 (100%)
Protocol: Compounds were evaluated for potassium channel opening activity using primary cultured guinea-pig urinary bladder (GPB) cells. […] Functional activity at potassium channels was measured by evaluating changes in membrane potential using the bis-oxonol dye DiBAC(4) (Molecular Probes) in a 96-well cell-based kinetic assay system, Fluorescent Imaging Plate Reader (FLIPR) (K. S. Schroeder et al., J. Biomed. Screen., v. 1 pp. 75-81 (1996)), hereby incorporated by reference. […]
Express the result in % but write the number alone.

*Q* Form field: reported Emax of CC(C)(C)C(NC(=O)c1ccccc1)NC(=S)Nc1cccnc1 (stereo not drawn) [Example 28]
*A* 77

*Q* Form field: reported Emax of CC(C)(C)OC(=O)N1CCC[C@@H]1[C@@H](NC(=O)c1ccc(Cl)cc1)NC(=NC#N)Nc1cccnc1 [Example 98]
*A* 62

*Q* Form field: reported Emax of Cc1ccccc1C(=O)NC(NC(=S)Nc1cccnc1)C(C)(C)C (stereo not drawn) [Example 26]
*A* 80

*Q* Form field: reported Emax of N#CN=C(Nc1cccnc1)NC(NC(=O)c1ccccc1)C(Cl)(Cl)Cl (stereo not drawn) [Example 49]
*A* 92

*Q* Form field: reported Emax of CC(C)(C)C(NC(=O)c1ccc(Cl)cc1)NC(=NC#N)Nc1cccc(F)c1 (stereo not drawn) [Example 70]
*A* 74

*Q* Form field: reported Emax of Cc1ccccc1C(=O)NC(NC(=O)Nc1cccnc1)C(Cl)(Cl)Cl (stereo not drawn) [Example 39]
*A* 101

*Q* Form field: reported Emax of Cc1ccc(C(=O)NC(NC(=S)Nc2cc(F)ccc2F)C(F)(F)F)cc1 (stereo not drawn) [Example 14]
*A* 110

*Q* Form field: reported Emax of Cc1ccc(C(=O)NC(NC(=S)Nc2cccnc2)C(F)(F)F)cc1 (stereo not drawn) [Example 1]
*A* 116

*Q* Form field: reported Emax of CCC(NC(=O)c1ccc(Cl)cc1)NC(=NC#N)Nc1cccnc1 (stereo not drawn) [Example 84]
*A* 69

---

Please go through the items and note down their melting point.

*Q* Form field: reported melting point of Cc1ccc(C(=O)NC(NC(=S)Nc2cccc(C)c2)C(F)(F)F)cc1 (stereo not drawn) [Example 16]
*A* 197 to 198 °C

*Q* Form field: reported melting point of CC(Cl)(Cl)C(NC(=O)c1ccc(Cl)cc1)NC(=N[N+](=O)[O-])Nc1cccnc1 (stereo not drawn) [Example 137]
*A* 170 to 172 °C

*Q* Form field: reported melting point of Cc1ccc(C(=O)NC(NC(=O)Nc2ccccc2F)C(Cl)(Cl)Cl)cc1 (stereo not drawn) [Example 43]
*A* 257 to 259 °C

*Q* Form field: reported melting point of O=C(Nc1cccnc1)NC(NC(=O)c1ccc(Cl)cc1)C(Cl)(Cl)Cl (stereo not drawn) [Example 41]
*A* 166 to 168 °C

*Q* Form field: reported melting point of CC(Cl)(Cl)C(NC(=O)c1cc(Cl)cc(Cl)c1)NC(=NS(=O)(=O)C(F)(F)F)Nc1cccnc1 (stereo not drawn) [Example 190]
*A* 213 to 215 °C

*Q* Form field: reported melting point of N#CN=C(NCNC(=O)c1ccc(Cl)cc1)Nc1cccnc1 [Example 85]
*A* 196 to 197 °C

*Q* Form field: reported melting point of Cc1ccc(C(=O)NC(CF)NC(=S)Nc2cccc([N+](=O)[O-])c2)cc1 (stereo not drawn) [Example 32]
*A* 148 to 155 °C

*Q* Form field: reported melting point of CC(C)(C)C(NC(=O)c1ccc(Cl)cc1)NC(=NC#N)NCc1cccc(Cl)c1 (stereo not drawn) [Example 78]
*A* 178 to 180 °C

*Q* Form field: reported melting point of CC(C)(C)CC(NC(=O)c1ccc(Cl)cc1)NC(=NC#N)Nc1cccnc1 (stereo not drawn) [Example 62]
*A* 181 to 183 °C

*Q* Form field: reported melting point of O=C(NC(CC12CC3CC(CC(C3)C1)C2)NC(=N[N+](=O)[O-])Nc1cccnc1)c1ccc(Cl)cc1 (stereo not drawn) [Example 134]
*A* 219 to 220 °C

*Q* Form field: reported melting point of N#CN=C(Nc1cccnc1)NC(NC(=O)c1cccc(Cl)c1)C(F)(F)C(F)(F)F (stereo not drawn) [Example 122]
*A* 183 to 185 °C

*Q* Form field: reported melting point of CC(C)CC(NC(=O)c1ccc(Cl)cc1)NC(=NC#N)Nc1cccnc1 (stereo not drawn) [Example 60]
*A* 193 to 194 °C

*Q* Form field: reported melting point of CC(C)(C)C(NC(=O)c1ccc(Cl)cc1)NC(=NC#N)Nc1cc(F)cc(F)c1 (stereo not drawn) [Example 72]
*A* 196 to 198 °C

*Q* Form field: reported melting point of CCC(NC(=O)c1ccc(Cl)cc1)NC(=NC#N)Nc1cccnc1 (stereo not drawn) [Example 84]
*A* 181 to 183 °C

*Q* Form field: reported melting point of CC(C)(C)C(NC(=O)c1ccc(Cl)cc1)NC(=NC#N)NCc1ccccc1Cl (stereo not drawn) [Example 77]
*A* 180 to 182 °C

*Q* Form field: reported melting point of CN(C)CC(C)(C)C(NC(=O)c1ccc(Cl)cc1)NC(=NC#N)Nc1cccnc1 (stereo not drawn) [Example 97]
*A* 101 to 103 °C

*Q* Form field: reported melting point of CC(C)(Cc1ccccc1)C(NC(=O)c1ccc(Cl)cc1)NC(=N[N+](=O)[O-])Nc1cccnc1 (stereo not drawn) [Example 128]
*A* 205 to 207 °C

*Q* Form field: reported melting point of CC(Cl)(Cl)C(NC(=O)c1cccnc1)NC(=NC#N)Nc1ccc(Cl)nc1 (stereo not drawn) [Example 193]
*A* 212 to 213 °C

*Q* Form field: reported melting point of O=C(NC(NC(=S)Nc1cccnc1)C(F)(F)F)c1ccc(Cl)cc1 (stereo not drawn) [Example 19]
*A* 147 to 149 °C

*Q* Form field: reported melting point of CCCC(Cl)(Cl)C(NC(=O)c1ccc(Cl)cc1)NC(=C[N+](=O)[O-])Nc1cccnc1 (stereo not drawn) [Example 151]
*A* 185 to 186 °C

*Q* Form field: reported melting point of CC(C)(C)C(NC(=O)c1ccc(Cl)cc1)NC(=NC#N)Nc1cccc(F)c1 (stereo not drawn) [Example 70]
*A* 167 to 170 °C

*Q* Form field: reported melting point of CC(C)(C)C(NC(=O)c1ccc(F)cc1)NC(=NC#N)Nc1cccnc1 (stereo not drawn) [Example 107]
*A* 195 to 196 °C

*Q* Form field: reported melting point of CCC(CC)C(NC(=O)c1ccc(Cl)cc1)NC(=NC#N)Nc1cccnc1 (stereo not drawn) [Example 59]
*A* 185 to 187 °C

*Q* Form field: reported melting point of COc1ccc(NC(=NC#N)NC(NC(=O)c2cccc(Cl)c2)C(C)(Cl)Cl)cn1 (stereo not drawn) [Example 182]
*A* 189 to 190 °C

*Q* Form field: reported melting point of Cc1ccccc1C(=O)NC(NC(=O)Nc1cccnc1)C(Cl)(Cl)Cl (stereo not drawn) [Example 39]
*A* 182 to 184 °C

*Q* Form field: reported melting point of COc1cccc(NC(=S)NC(NC(=O)c2ccc(C)cc2)C(F)(F)F)c1 (stereo not drawn) [Example 12]
*A* 206 to 208 °C

*Q* Form field: reported melting point of CC1=C(CC(NC(=O)c2ccc(Cl)cc2)NC(=N[N+](=O)[O-])Nc2cccnc2)C(C)(C)CCC1 (stereo not drawn) [Example 129]
*A* 217 to 218 °C

*Q* Form field: reported melting point of CC(Cl)(Cl)C(NC(=O)c1cccc(Cl)c1)NC(=N[N+](=O)[O-])Nc1cccnc1 (stereo not drawn) [Example 138]
*A* 160 to 161 °C

*Q* Form field: reported melting point of CC(C)(C)C(NC(=O)c1ccc(Cl)cc1)NC(=NC#N)Nc1c(F)cccc1F (stereo not drawn) [Example 74]
*A* 211 to 213 °C

*Q* Form field: reported melting point of COc1ccccc1NC(=S)NC(NC(=O)c1ccc(C)cc1)C(F)(F)F (stereo not drawn) [Example 8]
*A* 212 to 214 °C

*Q* Form field: reported melting point of C=CCOCC(CC)(COCC=C)C(NC(=O)c1ccc(Cl)cc1)NC(=N[N+](=O)[O-])Nc1cccnc1 (stereo not drawn) [Example 131]
*A* 175 to 180 °C

*Q* Form field: reported melting point of COc1ccc(NC(=S)NC(NC(=O)c2ccc(C)cc2)C(F)(F)F)cc1 (stereo not drawn) [Example 6]
*A* 193 to 194 °C

*Q* Form field: reported melting point of Cc1ccc(C(=O)NC(N2CCN(c3cccc(F)c3)C2=S)C(Cl)(Cl)Cl)cc1 (stereo not drawn) [Example 37]
*A* 184 to 186 °C

*Q* Form field: reported melting point of CC(C)(C)C(NC(=O)c1ccc(Cl)cc1)NC(=NC#N)NCc1ccncc1 (stereo not drawn) [Example 81]
*A* 189 to 191 °C

*Q* Form field: reported melting point of CC(C)C(NC(=O)c1ccc(Cl)cc1)NC(=NC#N)Nc1cccnc1 (stereo not drawn) [Example 63]
*A* 182 to 184 °C

*Q* Form field: reported melting point of CC(C)(C)C(NC(=O)c1ccc(Cl)cc1)NC(=NC#N)NCc1ccc(Cl)cc1 (stereo not drawn) [Example 79]
*A* 173 to 175 °C
